The reported numbers originate from paper PMC11345836.

Test: Solubility of solid forms
Assay type: physicochemical
Details: Form: MTBE
Outcome measure: solubility (µg/mL)
The reply should contain only the number, in µg/mL.

Requested field: solubility. Item: CC(C)(C)[C@H](NC(=O)C(F)(F)F)C(=O)N1C[C@H]2[C@@H]([C@H]1C(=O)N[C@H](C#N)C[C@@H]1CCNC1=O)C2(C)C [Compound 1, nirmatrelvir]
7210

###

Experiment: Shake-flask LogD
Assay type: physicochemical
Assignment: determine reported logD for the given compounds.
Please state the value as a number alone, without comment.

Form field: reported logD of "Cc1cnc(C(=O)N[C@H]2CCCCC/C=C\[C@@H]3C[C@@]3(C(=O)NS(=O)(=O)C3CC3)NC(=O)[C@@H]3C[C@@H](Oc4nc5ccccc5c5ccccc45)CN3C2=O)cn1"
3.1

Now try "Cc1cccc(C)c1OCC(=O)N[C@@H](Cc1ccccc1)[C@@H](O)C[C@H](Cc1ccccc1)NC(=O)[C@H](C(C)C)N1CCCNC1=O" .
3.8

###

Test: Rat liver microsome stability
Conditions: rat, microsomes
Outcome measure: microsomal CLint

For "COC(=O)N[C@H](C(=O)N1C[C@H](OC(F)(F)F)C[C@H]1C(=O)N[C@H](C#N)C[C@@H]1CCNC1=O)C(C)(C)C" , what is its reported microsomal CLint?
< 5.8 µL/min/mg

Next up: "COC(=O)N[C@H](C(=O)N1C[C@H](C(F)(F)F)C[C@H]1C(=O)N[C@H](C#N)C[C@@H]1CCCNC1=O)C(C)C"
< 5.8 µL/min/mg

Could you do the same for "CC(C)(C)[C@H](NC(=O)C(F)(F)F)C(=O)N1C[C@H](OC(F)F)C[C@H]1C(=O)N[C@H](C#N)C[C@@H]1CCNC1=O" , please?
< 5.8 µL/min/mg
